The entries below are paired with their reported IC50.
# TARGET OF ASSAY: type 1 InsP3R (InsP3R1) (Mus musculus)
# Sequence (P11881 whole entry): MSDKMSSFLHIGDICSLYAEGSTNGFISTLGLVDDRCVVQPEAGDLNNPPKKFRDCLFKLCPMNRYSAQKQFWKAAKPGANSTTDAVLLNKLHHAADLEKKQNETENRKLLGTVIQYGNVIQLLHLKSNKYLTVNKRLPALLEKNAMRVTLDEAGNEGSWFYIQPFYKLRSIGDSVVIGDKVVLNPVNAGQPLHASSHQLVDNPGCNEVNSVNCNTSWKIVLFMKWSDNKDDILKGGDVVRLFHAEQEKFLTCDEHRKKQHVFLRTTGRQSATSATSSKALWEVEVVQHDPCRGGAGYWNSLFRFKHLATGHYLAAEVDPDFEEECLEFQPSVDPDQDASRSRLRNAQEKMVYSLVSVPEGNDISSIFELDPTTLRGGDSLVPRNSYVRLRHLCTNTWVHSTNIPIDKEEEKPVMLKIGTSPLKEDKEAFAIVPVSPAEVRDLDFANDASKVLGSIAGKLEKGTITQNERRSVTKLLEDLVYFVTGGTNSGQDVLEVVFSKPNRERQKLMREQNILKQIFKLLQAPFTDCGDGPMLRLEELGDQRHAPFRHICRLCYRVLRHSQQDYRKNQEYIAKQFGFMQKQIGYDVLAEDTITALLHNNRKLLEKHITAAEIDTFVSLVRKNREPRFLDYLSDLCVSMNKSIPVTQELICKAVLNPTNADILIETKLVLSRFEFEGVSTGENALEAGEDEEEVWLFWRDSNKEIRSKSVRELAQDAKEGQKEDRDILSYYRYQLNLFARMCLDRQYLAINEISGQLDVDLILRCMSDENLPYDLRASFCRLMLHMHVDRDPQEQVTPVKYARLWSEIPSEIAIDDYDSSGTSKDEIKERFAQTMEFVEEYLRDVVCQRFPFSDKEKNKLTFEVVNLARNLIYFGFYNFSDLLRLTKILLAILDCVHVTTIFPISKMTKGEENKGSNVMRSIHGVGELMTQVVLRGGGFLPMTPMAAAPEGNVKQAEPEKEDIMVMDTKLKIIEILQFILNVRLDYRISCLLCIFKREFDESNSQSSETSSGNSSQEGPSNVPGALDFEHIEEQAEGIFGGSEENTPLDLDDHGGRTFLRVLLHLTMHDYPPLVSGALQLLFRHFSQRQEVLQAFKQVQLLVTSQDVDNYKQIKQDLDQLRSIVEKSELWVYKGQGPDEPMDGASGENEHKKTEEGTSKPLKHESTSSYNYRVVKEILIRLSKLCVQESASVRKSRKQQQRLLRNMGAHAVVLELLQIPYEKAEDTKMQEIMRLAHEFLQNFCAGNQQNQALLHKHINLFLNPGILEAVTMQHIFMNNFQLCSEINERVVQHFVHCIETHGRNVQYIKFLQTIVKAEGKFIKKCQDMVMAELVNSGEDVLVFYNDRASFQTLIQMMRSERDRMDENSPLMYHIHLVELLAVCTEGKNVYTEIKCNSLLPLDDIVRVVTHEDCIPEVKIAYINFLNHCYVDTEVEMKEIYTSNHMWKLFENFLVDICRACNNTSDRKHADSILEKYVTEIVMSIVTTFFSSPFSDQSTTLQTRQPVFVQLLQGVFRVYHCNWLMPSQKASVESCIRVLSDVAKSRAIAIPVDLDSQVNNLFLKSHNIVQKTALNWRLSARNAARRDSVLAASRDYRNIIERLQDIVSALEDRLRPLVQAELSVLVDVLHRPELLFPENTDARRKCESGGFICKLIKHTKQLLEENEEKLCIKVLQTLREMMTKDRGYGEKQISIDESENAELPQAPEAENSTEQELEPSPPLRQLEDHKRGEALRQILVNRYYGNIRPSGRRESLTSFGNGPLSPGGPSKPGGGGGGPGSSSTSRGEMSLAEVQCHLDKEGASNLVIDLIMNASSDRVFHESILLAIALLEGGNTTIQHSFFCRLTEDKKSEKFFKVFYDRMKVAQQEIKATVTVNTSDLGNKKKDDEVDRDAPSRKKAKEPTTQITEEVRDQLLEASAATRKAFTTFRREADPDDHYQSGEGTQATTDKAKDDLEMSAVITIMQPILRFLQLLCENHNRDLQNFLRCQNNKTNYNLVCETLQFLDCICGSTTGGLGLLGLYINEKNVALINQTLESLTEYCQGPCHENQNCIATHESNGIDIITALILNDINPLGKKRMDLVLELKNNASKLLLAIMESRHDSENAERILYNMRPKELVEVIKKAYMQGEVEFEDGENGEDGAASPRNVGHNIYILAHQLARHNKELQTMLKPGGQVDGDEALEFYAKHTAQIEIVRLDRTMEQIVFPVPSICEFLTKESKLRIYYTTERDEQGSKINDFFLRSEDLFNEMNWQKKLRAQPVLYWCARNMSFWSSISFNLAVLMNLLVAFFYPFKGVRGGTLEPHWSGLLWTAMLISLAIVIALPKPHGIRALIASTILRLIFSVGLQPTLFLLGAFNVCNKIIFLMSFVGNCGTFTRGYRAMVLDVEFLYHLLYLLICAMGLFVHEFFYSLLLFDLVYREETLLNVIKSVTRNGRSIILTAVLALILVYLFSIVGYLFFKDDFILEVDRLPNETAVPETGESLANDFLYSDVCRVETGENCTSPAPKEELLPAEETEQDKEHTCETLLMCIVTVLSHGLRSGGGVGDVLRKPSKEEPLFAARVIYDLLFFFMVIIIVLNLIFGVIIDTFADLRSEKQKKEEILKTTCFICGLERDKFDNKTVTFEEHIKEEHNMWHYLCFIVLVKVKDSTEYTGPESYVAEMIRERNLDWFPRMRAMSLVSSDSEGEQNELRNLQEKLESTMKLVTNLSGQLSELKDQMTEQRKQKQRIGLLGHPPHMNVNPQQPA
# EXPERIMENT DESCRIPTION: Inhibition of Ins
# TEST PARAMETERS: read-out: Ins P3R antagonism IC50 (inhibition of Ins(1,4,5)P3-induced Ca2+ release); permeabilized L15 fibroblasts overexpressing InsP3R1; Ca2+ release induced by 250 nM Ins(1,4,5)P3

{"COMPOUND": "O=P(O)(O)Oc1cc(OP(=O)(O)O)cc(-c2c(OP(=O)(O)O)cc(OP(=O)(O)O)cc2OP(=O)(O)O)c1 [Compound 4, biphenyl 2,3′,4,5′,6-pentakisphosphate, reference compound]", "MEASURE UNIT": "nM", "READOUT QUALIFIER": "=", "IC50": 417}
{"COMPOUND": "O=P(O)(O)Oc1ccc(OCCOc2ccc(OP(=O)(O)O)c(OP(=O)(O)O)c2)cc1OP(=O)(O)O", "MEASURE UNIT": "nM", "READOUT QUALIFIER": ">", "IC50": 5000}
{"COMPOUND": "O=P(O)(O)Oc1cc(OP(=O)(O)O)c(OP(=O)(O)O)cc1OCCOc1cc(OP(=O)(O)O)c(OP(=O)(O)O)cc1OP(=O)(O)O", "MEASURE UNIT": "nM", "READOUT QUALIFIER": "=", "IC50": 380}
{"COMPOUND": "O=P(O)(O)Oc1cc(OP(=O)(O)O)c(-c2cc(OP(=O)(O)O)c(OP(=O)(O)O)cc2OP(=O)(O)O)cc1OP(=O)(O)O [Compound 8, 2,2′,4,4′,5,5′-Biphenylhexakisphosphate]", "MEASURE UNIT": "nM", "READOUT QUALIFIER": "=", "IC50": 187}
